experiment: P-glycoprotein substrates identified in KB-8-5-11 adenocarcinoma cell line, qHTS therapeutic library screen (AID 1346987); conditions: KB-8-5-11 (P-gp overexpressing) viability, CellTiter-Glo, 72 h; series mostly up to 44.5 µM; note: nearly all actives have a fitted effect of over 65% in size
Records with an inconclusive call do not appear. Active and inactive are the calls of the source. Calls come from the whole dose curve; as a rule, active = well fitted inhibition curve with a large enough effect; inconclusive = small, poorly fitted or top-dose-only effect; inactive = flat fitted curve, though single readings scatter.
Your reply should match one of these outcome classes. True (active), False (inactive)

Task item: # lookup: test call for CC(C(=O)O)c1ccc(-c2ccccc2)c(F)c1 (centres undefined)
Reply: False

Task item: Entry O=c1ccn([C@@H]2O[C@H](CO)[C@H](O)[C@H]2O)c(=O)[nH]1 : call = ?
Reply: False

Task item: Record request — test call for CC=CCC=CCCC(=O)[C@H]1O[C@@H]1C(N)=O
Reply: False

Task item: Check the results log: what was the call for COc1ccc(-c2oc3c(CC=C(C)C)c(OC4O[C@H](CO)[C@@H](O)[C@H](O)[C@@H]4O)cc(O)c3c(=O)c2OC2O[C@@H](C)[C@H](O)[C@@H](O)[C@@H]2O)cc1 (some centres undefined) ?
Reply: True

Task item: For this compound, state the assay outcome: Cc1ccccc1C(C(=O)NC1CCCCC1)N(C(=O)Cn1ccnc1C)c1cccc(F)c1 (centres undefined)
Reply: False

Task item: // param item: CC1(C)CCC[C@@]2(C)[C@@H]1CC[C@@]1(C)OC(=O)C[C@H]21 ; yields the recorded call
Reply: False

Task item: Which outcome was entered for the compound Clc1ccc(-c2nc3sccn3c2C=NOCc2ccc(Cl)c(Cl)c2)cc1 in this test?
Reply: False

Task item: Tell me the recorded outcome of this test for C[C@@H]1CCN(C(=O)CC#N)C[C@H]1N(C)c1ncnc2[nH]ccc12 .
Reply: False

Task item: Assay result, entry Cc1ccc(C(C)(O)c2nc3ccccc3s2)c(C)c1 (centres undefined) — outcome?
Reply: False

Task item: For this compound, state the assay outcome: CO[C@H]1C(=O)[C@]2(C)[C@@H](OC)C[C@H]3OC[C@@]3(OC(C)=O)[C@H]2[C@H](OC(=O)c2ccccc2)[C@]2(O)C[C@H](OC(=O)[C@H](O)[C@@H](NC(=O)OC(C)(C)C)c3ccccc3)C(C)=C1C2(C)C
Reply: True

Task item: Assay result, entry Nc1nc(F)nc2c1ncn2[C@@H]1O[C@H](COP(=O)(O)O)[C@@H](O)[C@H]1O — outcome?
Reply: False

Task item: Outcome logged for O=C(Nc1c(Cl)cncc1Cl)c1ccc(OC(F)F)c(OCC2CC2)c1 in this assay:
Reply: False

Task item: Outcome? Cc1c(NC(=O)c2ccc(C(C)(C)C)cc2)cccc1-c1cn(C)c(=O)c(Nc2ccc(C(=O)N3CCOCC3)cc2)n1
Reply: False

Task item: // param item: CN1CCN(CCOc2cc(OC3CCOCC3)c3c(Nc4c(Cl)ccc5c4OCO5)ncnc3c2)CC1 ; yields the recorded call
Reply: False

Task item: Please state the recorded outcome for this compound: c1cc(-c2sc(-c3ccncc3)c(-c3ccncc3)c2-c2ccncc2)ccn1
Reply: False

Task item: What did this assay record as the result for CO[C@H]1C[C@@H]2CC[C@@H](C)[C@@](O)(O2)C(=O)C(=O)N2CCCC[C@@H]2C(=O)O[C@H]([C@H](C)C[C@@H]2CC[C@H](OCCO)[C@H](OC)C2)CC(=O)[C@H](C)C=C(C)[C@@H](O)[C@@H](OC)C(=O)[C@H](C)C[C@H](C)C=CC=CC=C1C ?
Reply: True

Task item: Status in this test for COc1ccc2cccc(CCNC(C)=O)c2c1 ?
Reply: False

Task item: I'd appreciate the recorded outcome for C[C@]12CC[C@@H]3c4ccc(O)cc4C[C@@H](CCCCCCCCCS(=O)CCCC(F)(F)C(F)(F)F)[C@H]3[C@H]1CC[C@H]2O (some centres undefined) from this test.
Reply: False

Task item: Assay outcome for C[N+]1(C)[C@@H]2CC(OC(=O)[C@H](CO)c3ccccc3)C[C@H]1[C@H]1O[C@@H]12 (some centres undefined) : what was it?
Reply: False
